tested on: SNB-75 CNS; experiment: NCI-60 one-dose screen, 48 h (100 = growth as untreated, 0 = no growth, -100 = all killed); conditions: 10 µM
About 83,000 compounds went through this panel and 20% of them were active in at least one assay; those are over-represented in the sample as a whole.
Decide using growth alone. Strictly below 70%: fulfilled. Equal to or above 70%: not fulfilled.

INSERT INTO results (compound, label) VALUES
  ('Cc1cc(C(C)(C)C)ccc1S', 'not fulfilled'),
  ('Cn1ncc2c(Sc3ccc(Cl)cc3)ncnc21', 'not fulfilled');

In the record for COC(=O)C1CCCN1C(=O)[C@@H]1CCCN1C(=O)[C@H](Cc1c[nH]c2ccccc12)NC(=S)Nc1cc(C(F)(F)F)cc(C(F)(F)F)c1 (some centres undefined) , is growth less than 70%?
fulfilled

###

tested on: SF-268 CNS; assay: NCI-60 one-dose screen, 48 h (100 = growth as untreated, 0 = no growth, -100 = all killed); settings: 10 µM unless noted
About 83,000 compounds went through this panel and 20% of them were active in at least one assay; those are over-represented in the sample as a whole.
Label scheme for growth: lower than 90% is 0, 90% and above is 1.

# count of solved cases: 10
INSERT INTO measurements (compound, label) VALUES
  ('O=C(O)C1CCCCN1c1nc(Cl)nc(Cl)n1 (stereo not given)', 1),
  ('O=C(CCl)N(C1CCCCC1)C1CCCCC1', 1),
  ('Cc1nc2c3c(ncn2n1)Oc1c(c(=O)[nH]c2ccccc12)C3c1ccc(Cl)cc1 (stereo not given)', 0),
  ('Cc1ccc(S(=O)(=O)NCCNc2nccc(-c3c(-c4cccc(N)c4)nc4sccn34)n2)cc1', 0),
  ('S=C1CC(=S)NC(=S)N1', 1),
  ('O=C(O)/C=C/C(=O)c1ccc(Cl)cc1', 1),
  ('COc1ccc(CN2CCc3c(Sc4ccccc4)nc(N)nc3C2=O)c(OC)c1', 0),
  ('C=C[C@@H]1C[C@H](O)Cc2ccccc2N1', 1),
  ('NC1=NC(SCc2ccccc2CCl)c2ncn(Cc3ccccc3CCl)c2N1 (stereo not given)', 0),
  ('Cc1ccc(S(=O)(=O)n2cc(C(=O)C(=O)Nc3ccncc3)c3ccccc32)cc1', 0);

Is the recorded value of growth equal to or greater than 90% for this compound? Cc1cc(N/N=C/c2nc(-c3ccc(Br)cc3)oc2C)c2cc(Cl)ccc2n1
0

###

test system: RPMI-8226 leukemia; test: NCI-60 one-dose screen, 48 h; conditions: 10 µM unless noted
Compounds without any hit were thinned out: in the full panel of roughly 83,000, 20% have a hit. Calls of active or inactive are those of the source. How the source made its calls: active means growth percent below 10; inactive means the rest.
Pick one: yes for active, no for inactive

# count of solved cases: 2
INSERT INTO measurements (smiles_input, label) VALUES
  ('COc1ccc(-c2ccc(-c3ccc(C(=N)N)s3)s2)cc1Cl', 'yes'),
  ('COc1ccc(Nc2[nH]n3c(=O)cc(C)nc3c2C(N)=O)c(OC)c1', 'no');

Answer briefly: the call reported for Cc1c(C(=O)/C=C/c2csc3ccccc23)[n+](=O)c2ccccc2n1[O-] in this assay.
yes

###

tested on: SF-539 CNS; experiment: NCI-60 one-dose screen, 48 h (100 = growth as untreated, 0 = no growth, -100 = all killed); conditions: 10 µM unless noted
About 83,000 compounds went through this panel and 20% of them were active in at least one assay; those are over-represented in the sample as a whole. Active and inactive are the calls of the source. How the source made its calls: active means growth percent below 10; inactive means the rest.
Measured growth accompanies every entry in the list below.

INSERT INTO assay_data (molecule, measured_value) VALUES
  ('CN1CCN(CCCOc2ccc3nc(Nc4ccc(Cl)c(C(F)(F)F)c4)ccc3c2)CC1', '47% (inactive)');

# return recorded growth for entry COc1ccc(Nc2[nH]n3c(=O)cc(C)nc3c2C(N)=O)c(OC)c1
91.2% (inactive)

# return recorded growth for entry CN(C)c1nc2c(N)ncnc2n1C1OC(CO)C(O)C1O (stereo unspecified)
101% (inactive)

# return recorded growth for entry O=[N+]([O-])c1ccc(OCCCOc2ccccc2)cc1
110% (inactive)

# return recorded growth for entry COc1ccc(/C=C\c2cc(OC)c(OC)c(OC)c2)cc1OC(=O)c1cccc(Cn2cc(CCOC(=O)c3cccc(Cn4nnc5c4C(=O)c4ccccc4C5=O)c3)nn2)c1
-22.5% (active)

# return recorded growth for entry Cc1ccc(-c2csc(NC(=O)CCCCl)n2)cc1
96.3% (inactive)

# return recorded growth for entry CC1(C)C(=O)/C(=C\c2ccc(C(F)(F)F)cc2)C[C@]2(C)[C@H]3CC[C@@H]4[C@H]5[C@H](C(=O)/C=C/c6ccc(C(F)(F)F)cc6)CC[C@]5(CO)CC[C@@]4(C)[C@]3(C)CC[C@@H]12
93.7% (inactive)

# return recorded growth for entry COc1ccc(C2C(C#N)=C(N)Oc3c2ccc2ccccc32)cc1 (stereo unspecified)
25.6% (inactive)

# return recorded growth for entry O=c1c2sc3ncccc3c2nnn1-c1ccccc1
102% (inactive)

# return recorded growth for entry COC(=O)c1cc2cc(-c3ccc(OC)cc3)cnc2[nH]1
-27.2% (active)

# return recorded growth for entry COC(=O)C(Sc1ccc(Cl)cc1)C1SC(=S)N(Cc2ccccc2)C1=O (stereo unspecified)
109% (inactive)

# return recorded growth for entry CN(CCCCN(C[C@H]1Cc2ncccc2CN1)[C@H]1CCCc2cccnc21)C1CCC(F)(F)CC1
99.2% (inactive)

# return recorded growth for entry O=C(C1=Cc2cc3ccccc3n2Cc2cnnn21)c1ccccc1
57.8% (inactive)

# return recorded growth for entry CCN(CC)c1ccc(N=O)cc1
77.2% (inactive)

# return recorded growth for entry Cc1ccc(-c2nc(C#N)c(S(=O)(=O)n3nc(-c4ccccc4)cc3N)o2)cc1
97% (inactive)

# return recorded growth for entry Cc1nc2c3c(ncn2n1)Oc1c(c(=O)[nH]c2ccccc12)C3c1ccc(Cl)cc1 (stereo unspecified)
93.4% (inactive)
